- assay_target: DNA gyrase subunit A/DNA gyrase subunit B (Mycobacterium tuberculosis (strain ATCC 25618 / H37Rv), UniProt P9WG45+P9WG47)
- Sequence (P9WG45 whole entry): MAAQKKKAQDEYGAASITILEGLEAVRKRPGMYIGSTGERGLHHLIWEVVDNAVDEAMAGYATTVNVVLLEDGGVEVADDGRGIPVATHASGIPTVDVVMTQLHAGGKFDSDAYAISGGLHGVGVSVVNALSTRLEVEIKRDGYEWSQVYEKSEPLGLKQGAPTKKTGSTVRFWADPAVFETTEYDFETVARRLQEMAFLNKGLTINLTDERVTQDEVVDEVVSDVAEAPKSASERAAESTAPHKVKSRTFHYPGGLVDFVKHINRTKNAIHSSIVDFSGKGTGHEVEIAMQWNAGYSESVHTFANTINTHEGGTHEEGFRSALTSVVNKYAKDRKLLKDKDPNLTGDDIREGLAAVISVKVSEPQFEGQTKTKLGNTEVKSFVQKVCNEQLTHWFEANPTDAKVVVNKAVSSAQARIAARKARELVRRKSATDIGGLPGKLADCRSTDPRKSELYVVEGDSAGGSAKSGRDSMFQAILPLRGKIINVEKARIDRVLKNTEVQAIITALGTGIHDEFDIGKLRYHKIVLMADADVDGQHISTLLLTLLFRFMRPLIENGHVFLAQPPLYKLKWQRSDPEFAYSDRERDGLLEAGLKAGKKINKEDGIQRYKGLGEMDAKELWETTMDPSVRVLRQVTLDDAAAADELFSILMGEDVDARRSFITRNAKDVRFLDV
- Sequence (P9WG47 whole entry): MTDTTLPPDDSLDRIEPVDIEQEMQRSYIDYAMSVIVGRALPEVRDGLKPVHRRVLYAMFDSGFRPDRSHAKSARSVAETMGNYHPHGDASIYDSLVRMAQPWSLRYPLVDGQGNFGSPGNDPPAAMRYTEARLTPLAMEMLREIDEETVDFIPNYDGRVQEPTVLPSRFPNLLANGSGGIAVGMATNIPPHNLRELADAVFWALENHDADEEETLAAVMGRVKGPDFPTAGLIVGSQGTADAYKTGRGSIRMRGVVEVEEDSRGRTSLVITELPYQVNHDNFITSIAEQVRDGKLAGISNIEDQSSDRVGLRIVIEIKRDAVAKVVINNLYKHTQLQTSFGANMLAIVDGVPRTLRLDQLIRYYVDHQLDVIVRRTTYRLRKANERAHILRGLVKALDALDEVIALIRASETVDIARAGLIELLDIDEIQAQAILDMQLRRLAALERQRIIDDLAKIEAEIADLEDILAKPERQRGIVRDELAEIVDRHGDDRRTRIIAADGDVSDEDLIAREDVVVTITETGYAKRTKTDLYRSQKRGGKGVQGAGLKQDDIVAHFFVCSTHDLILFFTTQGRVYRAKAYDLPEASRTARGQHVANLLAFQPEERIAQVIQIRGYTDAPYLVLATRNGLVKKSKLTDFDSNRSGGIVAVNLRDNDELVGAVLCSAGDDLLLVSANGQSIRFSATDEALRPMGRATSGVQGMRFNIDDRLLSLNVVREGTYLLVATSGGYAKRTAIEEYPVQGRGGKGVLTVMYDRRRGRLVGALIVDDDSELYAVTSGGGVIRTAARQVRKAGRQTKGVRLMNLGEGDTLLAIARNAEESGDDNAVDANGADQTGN
- protocol: Inhibition of Mycobacterium tuberculosis DNA gyrase assessed as inhibition of DNA supercoiling after 30 mins by electrophoresis
pIC50: −log10 of the molar value.
We use 5 as the dividing line for pIC50: on or above the line is Satisfied, below is Not satisfied.

Given Cc1ccc(NC(=S)Nc2ccc(Nc3c4ccccc4nc4ccc(C)cc34)cc2)cc1 , state whether its pIC50 is at least 5.
Not satisfied

Given Cc1ccc2nc3ccccc3c(Nc3ccc(NS(=O)(=O)c4ccc(Cl)cc4)cc3)c2c1 , state whether its pIC50 is at least 5.
Satisfied

Given Cc1ccc2nc3ccccc3c(Nc3ccc(NC(=S)Nc4ccccc4)cc3)c2c1 , state whether its pIC50 is at least 5.
Satisfied
